B1: C10orf62 (parent)
chain: RALEEVEMKLQKNFLTQRENTIAG

variants of: B1; test: protein stability index of a GFP-peptide fusion (GPS, HEK-293T) (PSI 1-6); higher = more stable; settings: c terminus: a fixed tail appended;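 further: lentivirally expressed fusions sorted by FACS into six bins by GFP to DsRed ratio, PSI derived from sequencing read proportions per bin multiplied by bin number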
Collected protein stability index values appear next to each entry.
quantityName: protein stability index

[
  {
    "mutationKey": "K9L",
    "quantityName": "protein stability index",
    "reading": 1.73
  },
  {
    "mutationKey": "N20G",
    "quantityName": "protein stability index",
    "reading": 3.6
  },
  {
    "mutationKey": "L15C",
    "quantityName": "protein stability index",
    "reading": 3.44
  },
  {
    "mutationKey": "G24V",
    "quantityName": "protein stability index",
    "reading": 2.85
  },
  {
    "mutationKey": "L15I",
    "quantityName": "protein stability index",
    "reading": 3.71
  },
  {
    "mutationKey": "T21W",
    "quantityName": "protein stability index",
    "reading": 2.93
  },
  {
    "mutationKey": "M8G",
    "quantityName": "protein stability index",
    "reading": 4.64
  },
  {
    "mutationKey": "N13F",
    "quantityName": "protein stability index",
    "reading": 2.23
  },
  {
    "mutationKey": "E4C",
    "quantityName": "protein stability index",
    "reading": 3.31
  },
  {
    "mutationKey": "N13M",
    "quantityName": "protein stability index",
    "reading": 3.02
  },
  {
    "mutationKey": "Q17D",
    "quantityName": "protein stability index",
    "reading": 4.13
  }
]
